Species: Rattus norvegicus
protocol: DrugMatrix - Regimen: Daily Repeat
Type: toxicity, organism-based, Sprague-Dawley
Parameters: regimen Daily Repeat, gender Male, age 6-8 weeks
conditions.used: in vivo, po, 0 mg/kg, 120 h, tissue Blood, route oral GAVAGE, dose level Control, time 5 day, vehicle 100 % WATER
outcome.measure: NEUTROPHIL (%)
Numbers only, in %.

Here's what some known entries look like.
For this compound ( "NCCCCCC(=O)O" ), measured NEUTROPHIL is 6.5

For this compound ( "Clc1cccc(Cl)c1N=C1NCCN1" ), measured NEUTROPHIL is 12

For this compound ( "C[C@H]1c2cccc(O)c2C(=O)C2=C(O)[C@]3(O)C(=O)C(C(N)=O)=C(O)[C@@H](N(C)C)[C@@H]3[C@@H](O)[C@@H]21.O" ), measured NEUTROPHIL is 8.17

For this compound ( "Nc1c2c(nc3ccccc13)CCCC2" ), measured NEUTROPHIL is 13.8

Would you mind listing NEUTROPHIL for each of the following compounds?
1. Cn1cc[nH]c1=S
2. N[C@@H](Cc1ccc(O)c(O)c1)C(=O)O
3. CN(C)CCCN1c2ccccc2Sc2ccc(Cl)cc21
4. c1ccc([C@H]2CN3CCSC3=N2)cc1
5. C[C@](N)(Cc1ccc(O)c(O)c1)C(=O)O
6. CNNCc1ccc(C(=O)NC(C)C)cc1

Ans:
1: 6.67; 2: 8.17; 3: 8.67; 4: 9.17; 5: 9.17; 6: 7.17
